Target: Prostaglandin D2 receptor 2 (Homo sapiens)
Sequence (Q9Y5Y4 whole entry): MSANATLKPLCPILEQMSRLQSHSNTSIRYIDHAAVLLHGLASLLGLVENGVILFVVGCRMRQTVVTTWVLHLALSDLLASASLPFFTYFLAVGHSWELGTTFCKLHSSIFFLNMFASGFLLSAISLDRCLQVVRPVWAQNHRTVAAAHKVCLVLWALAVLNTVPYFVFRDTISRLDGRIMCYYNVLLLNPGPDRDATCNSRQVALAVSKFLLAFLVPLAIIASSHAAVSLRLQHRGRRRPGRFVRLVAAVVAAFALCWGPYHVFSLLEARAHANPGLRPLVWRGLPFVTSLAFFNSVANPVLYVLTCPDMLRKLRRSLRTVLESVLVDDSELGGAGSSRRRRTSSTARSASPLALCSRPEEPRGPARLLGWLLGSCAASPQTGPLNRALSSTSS
Assay: Displacement of [3H]PGD2 from human CRTH2 expressed in chinese hamster CHO cells by liquid scintillation counting

[
  {
    "STRUCTURE_NOTATION": "CCCS(=O)(=O)c1ccc(C)c(C#Cc2cc(C#N)ccc2OCC(=O)O)c1",
    "Ki [nM]": 7
  },
  {
    "STRUCTURE_NOTATION": "Cc1ccc(S(=O)(=O)CCc2ccccc2)cc1C#Cc1cc(Cl)ccc1OCC(=O)O",
    "Ki [nM]": 7
  },
  {
    "STRUCTURE_NOTATION": "CN(c1cccc(C#Cc2cc(Cl)ccc2OCC(=O)O)c1)S(C)(=O)=O",
    "Ki [nM]": 122
  },
  {
    "STRUCTURE_NOTATION": "COc1ccccc1C#Cc1cc(Cl)ccc1OCC(=O)O",
    "Ki [nM]": 190
  },
  {
    "STRUCTURE_NOTATION": "CC(C)c1ccc(S(C)(=O)=O)cc1C#Cc1cc(Cl)ccc1OCC(=O)O",
    "Ki [nM]": 4.6
  },
  {
    "STRUCTURE_NOTATION": "O=C(O)COc1ccc(Cl)cc1C#Cc1cc(CO)ccc1F",
    "Ki [nM]": 73
  },
  {
    "STRUCTURE_NOTATION": "CCCS(=O)(=O)c1ccc(F)c(C#Cc2cc(Cl)ccc2OC(C)(C)C(=O)O)c1",
    "Ki [nM]": 260
  },
  {
    "STRUCTURE_NOTATION": "Cc1ccc(OCC(=O)O)c(C#Cc2ccccc2Cl)c1",
    "Ki [nM]": 283
  },
  {
    "STRUCTURE_NOTATION": "CN(C)C(=O)c1cccc(C#Cc2cc(Cl)ccc2OCC(=O)O)c1",
    "Ki [nM]": 52
  },
  {
    "STRUCTURE_NOTATION": "CNS(=O)(=O)c1ccc(C)c(C#Cc2cc(Cl)ccc2OCC(=O)O)c1",
    "Ki [nM]": 10
  },
  {
    "STRUCTURE_NOTATION": "CCCS(=O)(=O)c1cccc(C#Cc2cc(-c3ccccc3)ccc2OCC(=O)O)c1",
    "Ki [nM]": 19
  }
]

* * *

The entries below come with measured Papp at 2 h, 1 µM values attached.
assay: Apparent permeability across human Caco2 cells at 1 uM after 2 hrs by LC/MS/MS analysis; assay type: ADME, cell-based; details: Caco-2

[
  {
    "STRUCTURE_NOTATION": "CN(C)S(=O)(=O)c1cncc(C#Cc2cc(Cl)ccc2OCC(=O)O)c1",
    "UNIT_ABBREV": "×10⁻⁶ cm/s",
    "Papp at 2 h, 1 µM": 1.8
  },
  {
    "STRUCTURE_NOTATION": "O=C(O)COc1ccc(Cl)cc1C#Cc1cccc(Cl)c1",
    "UNIT_ABBREV": "×10⁻⁶ cm/s",
    "Papp at 2 h, 1 µM": 18.4
  },
  {
    "STRUCTURE_NOTATION": "CCCS(=O)(=O)c1cccc(C#Cc2cc(Cl)ccc2OCC(=O)O)c1",
    "UNIT_ABBREV": "×10⁻⁶ cm/s",
    "Papp at 2 h, 1 µM": 11.8
  },
  {
    "STRUCTURE_NOTATION": "CCCS(=O)(=O)c1ccc(C)c(C#Cc2cc(Cl)ccc2OCC(=O)O)c1",
    "UNIT_ABBREV": "×10⁻⁶ cm/s",
    "Papp at 2 h, 1 µM": 5.2
  },
  {
    "STRUCTURE_NOTATION": "CCCS(=O)(=O)c1ccc(F)c(C#Cc2cc(Cl)ccc2OCC(=O)O)c1",
    "UNIT_ABBREV": "×10⁻⁶ cm/s",
    "Papp at 2 h, 1 µM": 10.8
  }
]

* * *

test: AUC in BALB/c mouse at 5 mg/kg, po; assay type: ADME, organism-based; design: dose 5 mg/kg, route oral; settings: plasma
The entries below come with measured AUC values attached.
RECORDED_ENDPOINT: AUC (ng·h/mL)

[
  {
    "STRUCTURE_NOTATION": "CS(=O)(=O)c1ccc(F)c(C#Cc2cc(Cl)ccc2OCC(=O)O)c1",
    "TEST_RESULT": 3240
  },
  {
    "STRUCTURE_NOTATION": "Cc1ccc(S(C)(=O)=O)cc1C#Cc1cc(Cl)ccc1OCC(=O)O",
    "TEST_RESULT": 1800
  },
  {
    "STRUCTURE_NOTATION": "CC(C)c1ccc(S(C)(=O)=O)cc1C#Cc1cc(Cl)ccc1OCC(=O)O",
    "TEST_RESULT": 2650
  },
  {
    "STRUCTURE_NOTATION": "COCCNS(=O)(=O)c1ccc(C)c(C#Cc2cc(Cl)ccc2OCC(=O)O)c1",
    "TEST_RESULT": 831
  },
  {
    "STRUCTURE_NOTATION": "CC(C)c1ccc(S(C)(=O)=O)cc1C#Cc1cc(C#N)ccc1OCC(=O)O",
    "TEST_RESULT": 151
  },
  {
    "STRUCTURE_NOTATION": "Cc1ccc(S(=O)(=O)N2CCOCC2)cc1C#Cc1cc(Cl)ccc1OCC(=O)O",
    "TEST_RESULT": 1220
  },
  {
    "STRUCTURE_NOTATION": "CCCS(=O)(=O)c1ccc(C)c(C#Cc2cc(C#N)ccc2OCC(=O)O)c1",
    "TEST_RESULT": 1370
  },
  {
    "STRUCTURE_NOTATION": "CCCS(=O)(=O)c1ccc(F)c(C#Cc2cc(Cl)ccc2OCC(=O)O)c1",
    "TEST_RESULT": 6140
  }
]

* * *

experiment: Oral bioavailability in BALB/c mouse at 1 mg/kg by LC/MS/MS analysis; type: ADME, organism-based; details: in vivo

[
  {
    "STRUCTURE_NOTATION": "O=C(O)COc1ccc(Cl)cc1C#Cc1cccc(Cl)c1",
    "bioavailability (%)": 82
  }
]

* * *

The entries below come with measured log10 Ki values attached.
Target: Prostaglandin D2 receptor 2 (Homo sapiens, UniProt Q9Y5Y4)
Sequence (Q9Y5Y4 whole entry): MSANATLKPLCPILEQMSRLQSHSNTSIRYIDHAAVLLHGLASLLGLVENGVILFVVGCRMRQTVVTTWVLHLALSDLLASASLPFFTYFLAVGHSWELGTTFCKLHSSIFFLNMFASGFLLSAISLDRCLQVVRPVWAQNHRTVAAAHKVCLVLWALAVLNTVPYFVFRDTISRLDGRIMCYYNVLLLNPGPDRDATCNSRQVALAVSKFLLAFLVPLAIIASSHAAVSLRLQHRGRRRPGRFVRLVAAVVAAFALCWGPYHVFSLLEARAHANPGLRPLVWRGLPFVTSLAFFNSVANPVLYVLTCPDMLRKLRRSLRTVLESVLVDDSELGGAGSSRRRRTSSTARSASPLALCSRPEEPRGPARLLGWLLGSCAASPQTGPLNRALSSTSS
Test: Displacement of [3H]PGD2 from human CRTH2 expressed in chinese hamster CHO cells by liquid scintillation counting
RECORDED_ENDPOINT: log10 Ki (log10 of the value in nM)

[
  {
    "COMPOUND": "CCCS(=O)(=O)c1ccc(C)c(C#Cc2cc(Cl)ccc2OC(CC(C)C)C(=O)O)c1 (stereo not given)",
    "log10 Ki": 2.71
  },
  {
    "COMPOUND": "O=C(O)COc1ccc(Cl)cc1C#Cc1ccccn1",
    "log10 Ki": 3.05
  },
  {
    "COMPOUND": "CCCCCCc1ccncc1C#Cc1cc(Cl)ccc1OCC(=O)O",
    "log10 Ki": 1.63
  },
  {
    "COMPOUND": "N#Cc1ccc(OCC(=O)O)c(C#Cc2ccccc2Cl)c1",
    "log10 Ki": 1.38
  },
  {
    "COMPOUND": "CN(C)S(=O)(=O)c1ccc(F)c(C#Cc2cc(Cl)ccc2OCC(=O)O)c1",
    "log10 Ki": 0.49
  },
  {
    "COMPOUND": "Cc1ccc(S(=O)(=O)N2CCOCC2)cc1C#Cc1cc(Cl)ccc1OCC(=O)O",
    "log10 Ki": 0.56
  },
  {
    "COMPOUND": "CCN(CC)S(=O)(=O)c1ccc(C)c(C#Cc2cc(Cl)ccc2OCC(=O)O)c1",
    "log10 Ki": 0.53
  },
  {
    "COMPOUND": "Cc1ccc(S(C)(=O)=O)cc1C#Cc1cc(Cl)ccc1OCC(=O)O",
    "log10 Ki": 0.70
  },
  {
    "COMPOUND": "Cc1ccc(S(=O)(=O)N2CCCCC2C)cc1C#Cc1cc(Cl)ccc1OCC(=O)O (stereo not given)",
    "log10 Ki": 0.28
  },
  {
    "COMPOUND": "CCCS(=O)(=O)c1ccc(F)c(C#Cc2cc(Cl)ccc2OC(C)C(=O)O)c1 (stereo not given)",
    "log10 Ki": 0.48
  }
]
